target: Recombinant GST-NEMO (from plasmid pGEX4T3-NEMO(1-196)) (UniProt Q9Y6K9); test: HTRF competition against biotin-IKKβKK/RR(701-745) on GST-NEMO
Sequence (Q9Y6K9 1-196): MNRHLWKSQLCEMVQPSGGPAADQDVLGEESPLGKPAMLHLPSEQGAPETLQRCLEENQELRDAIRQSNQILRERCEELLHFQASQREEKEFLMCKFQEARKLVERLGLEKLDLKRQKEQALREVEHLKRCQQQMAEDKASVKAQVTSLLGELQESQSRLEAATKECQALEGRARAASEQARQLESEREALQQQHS
Numbered stars: 1 amine (or outer) side, 2 acyl side, 3 side chain; on linkers, the order of the positions; unused ones are H or OH. Bridge positions count the residues as written; N and C are the ends. Square brackets hold non-standard residues; d marks the D form. Ends that are not written are not given here. Tm = trimesic acid, bicyclized on Tm at the N-terminus; Trimesoyl = O=C(c1cc(C(=O)[*:2])cc(C(=O)[*:3])c1)[*:1]; 2Nal = N[C@@H](Cc1ccc2ccccc2c1)C(=O)O; Dap = NC[C@H](N)C(=O)O; βAla = NCCC(=O)O
So basically, if IC50 comes in under 3000 nM it's 1 (yes), and if it's 3000 nM or more it's 0 (no).

Completed entries (count: 3):
BINDER	DISCRETE LABEL
Trimesoyl-GWIAA[Dap]F[2Nal]R[dR]R[Dap][βAla][βAla]K (linker N-6-12 via Tm) [peptide 14, Tm(GWIAA)Δ(FΦRrRΔ)-BBK]	1 (yes)
Trimesoyl-GWIYA[Dap]A[2Nal]R[dR]R[Dap][βAla][βAla]K (linker N-6-12 via Tm) [peptide 15, Tm(GWIYA)Δ(AΦRrRΔ)-BBK]	1 (yes)
Trimesoyl-GWIY[Dap]F[2Nal]R[dR]R[Dap][βAla][βAla]K (linker N-5-11 via Tm) [peptide 6, Tm(GWIY)Δ(FΦRrRΔ)-BBK]	0 (no)

[Q] I'd appreciate it if you could check whether Trimesoyl-GWIYA[Dap]F[2Nal]R[dA]R[Dap][βAla][βAla]K (linker N-6-12 via Tm) [peptide 18, Tm(GWIYA)Δ(FΦRaRΔ)-BBK] has IC50 smaller than 3000 nM.
[A] 1 (yes)

[Q] I'd appreciate it if you could check whether Trimesoyl-GWIY[dA][Dap]F[2Nal]R[dR]R[Dap][βAla][βAla]K (linker N-6-12 via Tm) [peptide 8, Tm(GWIYa)Δ(FΦRrRΔ)-BBK] has IC50 smaller than 3000 nM.
[A] 1 (yes)
